Target: T1, human GIP receptor (human, UniProt P48546 22-466)
T1 sequence (looked up): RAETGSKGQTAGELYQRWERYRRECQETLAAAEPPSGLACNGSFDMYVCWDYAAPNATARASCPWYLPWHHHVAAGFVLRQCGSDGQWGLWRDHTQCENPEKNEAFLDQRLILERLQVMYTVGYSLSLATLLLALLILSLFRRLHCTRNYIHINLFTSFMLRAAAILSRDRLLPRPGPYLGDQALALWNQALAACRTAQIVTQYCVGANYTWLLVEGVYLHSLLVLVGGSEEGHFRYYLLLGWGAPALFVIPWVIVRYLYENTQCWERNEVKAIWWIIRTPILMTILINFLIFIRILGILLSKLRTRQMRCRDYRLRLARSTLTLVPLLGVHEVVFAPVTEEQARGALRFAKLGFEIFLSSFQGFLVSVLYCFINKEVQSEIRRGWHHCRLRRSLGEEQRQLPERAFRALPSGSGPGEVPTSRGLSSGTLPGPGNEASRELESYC
Test: cell-based or functional assay
Positions of bridges follow the written chain, without caps; N, C: chain ends. Non-standard residues stand in square brackets, D forms with d. No end group written: not given here. *: point of attachment. Acetyl(2-(4-imidazolyl)) = O=C(Cc1c[nH]cn1)*; Aib = CC(C)(N)C(=O)O
Parameter In vitro Activity Compared to Native Peptide (%) vs. GIP: see the listing below.
EXPERIMENTAL_READOUT: In vitro Activity Compared to Native Peptide (%) vs. GIP

binder="H[Aib]QGTFTSDVSSYLDGQAAKEFVAWLLKGC [triple agonist of SEQ ID NO: 6]" qualifier_operator=< obs_value=0.1
binder="H[Aib]QGTFTSDYSIAMDEIHQKDFVNWLLAQC (bridge 16-20) [triple agonist of SEQ ID NO: 55]" qualifier_operator== obs_value=2.4
binder="{Acetyl(2-(4-imidazolyl))}-[Aib]QGTFTSDYSIAMDEIACKDFVNWLLNTK (bridge 15-19) [triple agonist of SEQ ID NO: 61]" qualifier_operator== obs_value=2.8
